This collection of values is drawn from paper PMC10791742.

experimental.system: T1, myotoxin II from Bothrops asper (Bothrops asper, UniProt P24605)
T1 construct: also called Mt; M2; source: purified from Bothrops asper venom (CM-Sephadex C25, RP-HPLC), biotinylated
T1 sequence (P24605 17-137): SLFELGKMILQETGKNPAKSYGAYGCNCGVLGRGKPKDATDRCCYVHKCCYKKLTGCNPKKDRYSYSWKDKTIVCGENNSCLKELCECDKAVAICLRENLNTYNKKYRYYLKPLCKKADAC
test.summary: BLI; […]) biosensors ([…] (0, 1, 10, 100 nM; […]
conditions.used: both partners purified
endpoint.label: kon (M⁻¹ s⁻¹)

1) TPL0039_05_B04 IgG1 (LALA + YTE) (antibody, V domains shown, also called B04(LALA + YTE); copies: 2 + 2) VH: EVQLLESGGGVVQPGRSLRLSCAASGFTFSSYGMHWVRQAPGKGLEWVAVISYDGSNKYYADSVKGRFTISRDNSKNTLYLQMNSLRAEDTAVYYCARVGENEAFDIWGQGTMVTVSS VL: NFMLTQPHSVSESPGKTVTISCTRSSGSIARNYVQWYQQRPGSAPTTVIYEDNQRPSGVPDRFSGSIDSSSNSASLTISGLKTEDEADYYCQSYDSSTVVFGGGTKLTVL: 861000
2) TPL0039_05_F04 IgG1 (LALA + YTE) (antibody, V domains shown, also called F04(LALA + YTE); copies: 2 + 2) VH: QVQLVESGGGVVQPGRSPRLSCAASGFTFSSYGMHWVRQAPGKGLEWVAVISYDGSNKYYADSVKGRFTISRDNSKNTLYLQMNSLRAEDTAVYYCAKDLEYSSSSWGQGTLVTVSS VL: NFMLTQPHSVSESPGKTVTISCTRSSGSIASNYVQWFQQRPGSSPTTVIYEDDQRPSGVPDRFSGSIDSSSNSASLTISGLKTEDEATYFCQSYDSSTVVFGGGTKVTVL: 723000
3) TPL0039_05_G08 IgG1 (LALA + YTE) (antibody, V domains shown, also called G08(LALA + YTE); copies: 2 + 2) VH: EVQLVESGGGVVQPGRSLRLSCAASGFTFSSYGMHWVRQAPGKGLEWVAVISYDGSNKYYADSVKGRFTISRDNSKNTLYLQMNSLRAEDTAVYYCARTNYDSGDAFDIWGQGTLVTVSS VL: NFMLTQPHSVSESPGKTVTISCTRSSGSIASNYVQWYQQRPGSSPTTVIYEDNQRPSGVPDRFSGSIDSSSNSASLTISGLKTEDEADYYCQSYDSSTVVFGGGTKLTVL: 245000
4) TPL0039_05_A03 IgG1 (LALA + YTE) (antibody, V domains shown, also called A03(LALA + YTE); copies: 2 + 2) VH: QVQLVESGGGLAKPGRSLRLSCAVSGFTFSSYGMHWVRQAPGKGLEWVAVISYDGSNKYYADSVKGRFTISRDNSKNTLYLQMNSLRAEDTAVYYCASTLQQLDAFDIWGQGTMVTVSS VL: NFMLTQPHSVSESPGKTITISCTRSSGSIASNYVQWYQQRPGSVPTPVIYEDDRRPSGVPDRFSGSIDSSSNSASLTISGLKTEDEADYYCQSYDSSSVVFGGGTKITVL: 648000
